Reported Kd values for a set of compounds
system_tested: ShhN protein (Homo sapiens, UniProt Q15465)
Construct: auto-cleavage of full length Shh into an active 20 kD N-terminal fragment (ShhN); purchased R&D Systems
Sequence (Q15465 24-197 limits assumed, species assumed): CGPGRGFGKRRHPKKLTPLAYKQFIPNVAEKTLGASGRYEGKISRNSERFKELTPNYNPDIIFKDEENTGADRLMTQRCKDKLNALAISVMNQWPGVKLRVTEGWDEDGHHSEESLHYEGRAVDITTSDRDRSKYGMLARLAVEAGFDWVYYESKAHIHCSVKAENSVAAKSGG
protocol: Surface Plasmon Resonance (SPR) protein binding assay on immobilized ShhN
test_settings: SPR, Biacore T100, ShhN immobilized on CM4 chip, 25° C., compound 0.78 μM-25 μM; read-out: KD

compound	endpoint	measured
CC(C)(C)OC(=O)C[C@@H]1C/C=C/CCC(=O)N[C@H](c2ccc(Cl)cc2)COC1=O [FV]	Kd	< 0.1 µM
O=C(C[C@@H]1C[C@@H]2O[C@H]2CCC(=O)N[C@H](c2ccccc2)COC1=O)NCc1ccc(Cl)cc1 [Example CD]	Kd	1 to 100 µM
CC(C)c1ccc(CNC(=O)C[C@@H]2C/C=C/CCC(=O)O[C@H](c3ccccc3)CNC2=O)cc1 [EJ]	Kd	1 to 100 µM
CCCCN1CCC(CNC(=O)C[C@@H]2C/C=C/CCC(=O)O[C@H](c3ccccc3)CNC2=O)CC1 [EI]	Kd	> 100 µM
O=C1CC/C=C/C[C@@H](Cc2ccc(Cl)cc2)C(=O)NC[C@@H](c2ccccc2)O1 [Example BQ]	Kd	< 0.1 µM
O=C(C[C@@H]1CCCCCC(=O)OC[C@@H]2CCCN2C1=O)NCc1ccc(Cl)cc1 [Example FB]	Kd	1 to 100 µM
O=C1CC/C=C/C[C@@H](O)C(=O)OC[C@@H](c2ccccc2)N1 [Example H]	Kd	< 0.1 µM

Next compound, Kd to be filled in.
The reported Kd of the compound N[C@@H]1C/C=C/C[C@@H](CC(=O)NCc2ccc(Cl)cc2)C(=O)NC[C@@H](c2ccccc2)OC1=O [Example CV] was < 0.1 µM

###

system_tested: ShhN protein (Homo sapiens)
Construct: auto-cleavage of full length Shh into an active 20 kD N-terminal fragment (ShhN); purchased R&D Systems
protocol: Surface Plasmon Resonance (SPR) protein binding assay on immobilized ShhN
test_settings: SPR, Biacore T100, ShhN immobilized on CM4 chip, 25° C., compound 0.78 μM-25 μM; read-out: KD
Reported Kd values for a set of compounds

Would you please look over these solved cases?
compound	system_tested	Kd
O=C(C[C@@H]1C/C=C/CCC(=O)N[C@@H]2c3ccccc3C[C@@H]2OC1=O)NCc1ccc(Cl)cc1 [Example BJ]	ShhN protein (Homo sapiens)	1 to 100 µM
O=C(C[C@@H]1C/C=C/CCC(=O)O[C@H](c2ccccc2)CNC1=O)NC(c1ccccc1)c1ccccc1 [EW]	ShhN protein (Homo sapiens)	> 100 µM
C[C@@H]1C/C=C/CCC(=O)O[C@H](c2ccccc2)CNC1=O [Compound BP]	ShhN protein (Homo sapiens)	> 100 µM

Test item C[C@H]1[C@@H](c2ccccc2)OC(=O)CC/C=C\C[C@@H](CC(=O)NCc2ccc(Cl)cc2)C(=O)N1C [Example EZ] ; ShhN protein (Homo sapiens); reported Kd was > 100 µM

Test item CC(=O)N[C@@H]1C/C=C/CCC(=O)N[C@H](c2ccccc2)COC1=O [Example B] ; ShhN protein (Homo sapiens); reported Kd was < 0.1 µM

Test item COc1ccc(CNC(=O)C[C@@H]2C/C=C/CCC(=O)O[C@H](c3ccccc3)CNC2=O)cc1 [EQ] ; ShhN protein (Homo sapiens); reported Kd was 1 to 100 µM

###

Test system: C3H10T1/2
protocol: Induction of osteogenic differentiation (modulation of osteoblast differentiation)
test_settings: Mus musculus, C3H 10T1/2, read-out: IC50 (nM) C3H10T1/2
Reported IC50 values for a set of compounds

compound	system_tested	endpoint	measured
O=C1CC/C=C/C[C@@H](CC(=O)N2CCOCC2)C(=O)NC[C@@H](c2ccccc2)O1	C3H10T1/2	IC50	1000 to 100000 nM

The reported IC50 of the compound `CC1(C)O[C@H]2CCC(=O)O[C@H](c3ccccc3)CNC(=O)[C@H](CC(=O)NCc3ccc(Cl)cc3)C[C@@H]2O1` was 1000 to 100000 nM

The reported IC50 of the compound `C[C@@H]1CCCCC(F)(F)C(=O)N[C@H](c2ccccc2)COC1=O` was > 100000 nM

The reported IC50 of the compound `CC(=O)N[C@@H]1C/C=C/C[C@@H](C)C(=O)OC[C@@H](c2ccccc2)NC1=O` was > 100000 nM

The reported IC50 of the compound `C[C@@H]1CCCCCC(=O)N[C@H](c2ccccc2)COC1=O` was 1000 to 100000 nM

The reported IC50 of the compound `C[C@H]1CCCC[C@@H](CC(=O)NCc2ccc(Cl)cc2)C(=O)NC[C@@H](c2ccccc2)OC1=O` was 100 to 1000 nM

The reported IC50 of the compound `O=C(C[C@@H]1C/C=C/CCC(=O)N[C@H](c2ccc(Cl)cc2)COC1=O)NCc1ccc(Cl)cc1` was 100 to 1000 nM

The reported IC50 of the compound `O=C(C[C@@H]1C/C=C/CCC(=O)N[C@H](c2ccc(F)cc2)COC1=O)NCc1ccc(Cl)cc1` was < 100 nM

The reported IC50 of the compound `O=C(C[C@@H]1C[C@H](O)[C@@H](O)CCC(=O)N[C@H](c2ccccc2)COC1=O)NCc1ccc(Cl)cc1` was 1000 to 100000 nM

The reported IC50 of the compound `O=C(C[C@@H]1C/C=C/CCC(=O)OC[C@@H]2CCCN2C1=O)NCc1ccc(Cl)cc1` was 1000 to 100000 nM

###

Reported Kd values for a set of compounds
system_tested: ShhN protein (Homo sapiens, UniProt Q15465)
Construct: auto-cleavage of full length Shh into an active 20 kD N-terminal fragment (ShhN); purchased R&D Systems
protocol: Surface Plasmon Resonance (SPR) protein binding assay on immobilized ShhN
test_settings: SPR, Biacore T100, ShhN immobilized on CM4 chip, 25° C., compound 0.78 μM-25 μM; read-out: KD

compound	measured
O=C(C[C@@H]1C/C=C/CCC(=O)N2CCC[C@H]2COC1=O)NCc1ccc(Cl)cc1 [FT]	1 to 100 µM
O=C(C[C@@H]1C/C=C/CCC(=O)O[C@H](c2ccccc2)CNC1=O)N[C@@H]1CCCc2ccccc21 [Example CR]	< 0.1 µM
O=C(C[C@@H]1C/C=C/CCC(=O)N[C@H](c2ccccc2)COC1=O)NCC1CCOCC1 [FZ]	1 to 100 µM

The reported Kd of the compound O=C(C[C@@H]1C/C=C/CCC(=O)O[C@H](c2ccccc2)CNC1=O)NCCc1ccc(Cl)cc1 [EL] was > 100 µM

The reported Kd of the compound CN1C(=O)CC/C=C/C[C@@H](CC(=O)NCc2ccc(Cl)cc2)C(=O)OC[C@H]1c1ccccc1 [GH] was 1 to 100 µM

The reported Kd of the compound C[C@@H]1C/C=C/CCC(=O)O[C@H](c2ccccc2)[C@H](C)N(C)C1=O [Example BC] was 1 to 100 µM

The reported Kd of the compound CCOCCNC(=O)C[C@@H]1C/C=C/CCC(=O)O[C@H](c2ccccc2)CNC1=O [EH] was > 100 µM

The reported Kd of the compound O=C(C[C@@H]1C/C=C/CCC(=O)O[C@H](c2ccccc2)CN(Cc2ccccc2)C1=O)NCc1ccc(Cl)cc1 [EV] was > 100 µM

The reported Kd of the compound O=C(C[C@@H]1C/C=C/CCC(=O)N[C@H](C2CCCCC2)COC1=O)NCc1ccc(Cl)cc1 [FU] was > 100 µM

The reported Kd of the compound CCN(CC)CCCNC(=O)C[C@@H]1C/C=C/CCC(=O)O[C@H](c2ccccc2)CNC1=O [EG] was > 100 µM

###

Reported Kd values for a set of molecules
system_tested: ShhN protein (Homo sapiens)
Construct: auto-cleavage of full length Shh into an active 20 kD N-terminal fragment (ShhN); purchased R&D Systems
protocol: Surface Plasmon Resonance (SPR) protein binding assay on immobilized ShhN
test_settings: SPR, Biacore T100, ShhN immobilized on CM4 chip, 25° C., compound 0.78 μM-25 μM; read-out: KD

molecule	measured
C[C@H]1CCCC[C@@H](CC(=O)NCc2ccc(Cl)cc2)C(=O)NC[C@@H](c2ccccc2)OC1=O	< 0.1 µM
O=C(C[C@@H]1C[C@H](O)[C@@H](O)CCC(=O)N[C@H](c2ccccc2)COC1=O)NCc1ccc(Cl)cc1	< 0.1 µM
C[C@@H]1C[C@H](O)[C@@H](O)CCC(=O)N[C@H](c2ccccc2)COC1=O	1 to 100 µM
O=C(C[C@@H]1C/C=C/CCC(=O)O[C@H](c2ccccc2)CNC1=O)NCc1ccccc1	1 to 100 µM
O=C(C[C@@H]1C/C=C/CCC(=O)O[C@H](c2ccccc2)CNC1=O)NCC1CCOCC1	1 to 100 µM
C[C@@H]1C/C=C/CC(F)(F)C(=O)N[C@H](c2ccccc2)COC1=O	0.1 to 1 µM

The reported Kd of the molecule `C[C@@H]1C/C=C/CCC(=O)N[C@H](c2ccccc2)COC1=O` was < 0.1 µM

The reported Kd of the molecule `O=C(C[C@@H]1C/C=C/CCC(=O)N[C@H](c2ccc(Cl)cc2)COC1=O)NCc1ccc(Cl)cc1` was < 0.1 µM

The reported Kd of the molecule `O=C(C[C@@H]1C/C=C/CCC(=O)O[C@H](c2ccccc2)CNC1=O)NCCCC(F)(F)F` was < 0.1 µM
